Entry source: ChEMBL document CHEMBL4041547

tested on: Signal transduction protein TRAP (Staphylococcus aureus (strain Mu50 / ATCC 700699)) (UniProt Q7A2Q4)
Sequence (whole entry): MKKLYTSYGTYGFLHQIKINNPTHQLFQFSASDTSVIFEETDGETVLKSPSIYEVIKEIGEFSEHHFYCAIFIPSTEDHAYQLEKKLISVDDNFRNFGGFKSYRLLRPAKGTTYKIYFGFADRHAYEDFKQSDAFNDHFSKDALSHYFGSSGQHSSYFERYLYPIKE
assay name: Inhibition of methicillin-resistant Staphylococcus aureus Mu50 TRAP assessed as potentiation of vancomycin-induced antibiofilm activity by measuring vancomycin-mediated reduction in colony forming units at 25 uM cotreated with vancomycin for 24 hrs (reference value: 30 +/- 14%)
measurement context: Staphylococcus aureus subsp. aureus Mu50

compound | inhibition (%)
O=C(NC[C@]1(O)CO[C@H](CNC(=O)c2ccccc2Cl)[C@H]1O)c1ccc(Cl)cc1 | 43
O=C(OC[C@H]1OC(O)[C@@](O)(COC(=O)c2cc(O)c(O)c(O)c2)[C@@H]1O)c1cc(O)c(O)c(O)c1 (stereo partly drawn) [HAMAMELITANNIN] | 31
O=C(NC[C@H]1OC[C@H](O)[C@@H]1O)c1ccccc1Cl | 81

* * *

tested on: Signal transduction protein TRAP (Staphylococcus aureus (strain Mu50 / ATCC 700699))
Sequence (whole entry): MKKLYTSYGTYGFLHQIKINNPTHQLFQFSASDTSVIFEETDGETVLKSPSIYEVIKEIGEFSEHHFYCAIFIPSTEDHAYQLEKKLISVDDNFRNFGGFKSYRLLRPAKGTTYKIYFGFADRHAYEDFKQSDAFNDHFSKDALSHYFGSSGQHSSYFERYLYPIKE
assay name: Inhibition of methicillin-resistant Staphylococcus aureus Mu50 TRAP assessed as potentiation of vancomycin-induced antibiofilm activity by measuring vancomycin-mediated reduction in colony forming units at 25 uM pretreated for 4 hrs prior to vancomycin addition measured after 20 hrs (reference value: 30 +/- 14%)
measurement context: Staphylococcus aureus subsp. aureus Mu50
Response field class: string, computed from recorded inhibition by ranges 0 (below 40%), 1 (40% to below 80%), 2 (80% or more)

compound | classification
O=C(CCc1ccccc1)NC[C@]1(O)CO[C@H](CNC(=O)c2ccccc2Cl)[C@H]1O | 0
O=C(NC[C@H]1OC[C@@](O)(CNS(=O)(=O)c2ccccc2)[C@@H]1O)c1ccccc1Cl | 1
O=C(NC[C@H]1OC[C@@](O)(CN2Cc3ccccc3C2=O)[C@@H]1O)c1ccccc1Cl | 2
CN[C@H](CC(C)C)C(=O)N[C@H]1C(=O)N[C@@H](CC(N)=O)C(=O)N[C@H]2C(=O)N[C@H]3C(=O)N[C@H](C(=O)N[C@H](C(=O)O)c4cc(O)cc(O)c4-c4cc3ccc4O)[C@H](O)c3ccc(c(Cl)c3)Oc3cc2cc(c3O[C@@H]2O[C@H](CO)[C@@H](O)[C@H](O)[C@H]2O[C@H]2C[C@](C)(N)[C@H](O)[C@H](C)O2)Oc2ccc(cc2Cl)[C@H]1O | 0
[N-]=[N+]=NC[C@]1(O)CO[C@H](CNC(=O)c2ccccc2Cl)[C@H]1O | 2
O=C(OC[C@H]1OC(O)[C@@](O)(COC(=O)c2cc(O)c(O)c(O)c2)[C@@H]1O)c1cc(O)c(O)c(O)c1 (stereo partly drawn) | 0
O=C(NC[C@]1(O)CO[C@H](CNC(=O)c2ccccc2Cl)[C@H]1O)c1cncnc1 | 0
O=C(NC[C@H]1OC[C@@](O)(CNCc2ccccc2)[C@@H]1O)c1ccccc1Cl | 2
Cc1ccc(C(=O)NC[C@]2(O)CO[C@H](CNC(=O)c3ccccc3Cl)[C@H]2O)cc1 | 1
O=C(NC[C@]1(O)CO[C@H](CNC(=O)c2ccccc2Cl)[C@H]1O)Nc1ccccc1 | 1
CC(=O)NC[C@]1(O)CO[C@H](CNC(=O)c2ccccc2Cl)[C@H]1O | 1
O=C(NC[C@]1(O)CO[C@H](CNC(=O)c2ccccc2Cl)[C@H]1O)c1ccoc1 | 1
O=C(NC[C@H]1OC[C@@](O)(CNC(=O)C2CCCCC2)[C@@H]1O)c1ccccc1Cl | 2
O=C(NC[C@]1(O)CO[C@H](CNC(=O)c2ccccc2Cl)[C@H]1O)c1ccccc1 | 2
COc1ccc(C(=O)NC[C@]2(O)CO[C@H](CNC(=O)c3ccccc3Cl)[C@H]2O)cc1 | 0
O=C(NC[C@]1(O)CO[C@H](CNC(=O)c2ccccc2Cl)[C@H]1O)c1ccccc1F | 0

* * *

tested on: Signal transduction protein TRAP (Staphylococcus aureus (strain Mu50 / ATCC 700699))
assay name: Inhibition of methicillin-resistant Staphylococcus aureus Mu50 TRAP assessed as potentiation of vancomycin-induced antibiofilm activity by measuring vancomycin-mediated reduction in colony forming units at 25 uM cotreated with vancomycin for 24 hrs (reference value: 30 +/- 14%)
measurement context: Staphylococcus aureus subsp. aureus Mu50
readout kind: inhibition

smiles string | readout kind | result
O=C(NC[C@H]1OC[C@@](O)(CNC(=O)C2CCCCC2)[C@@H]1O)c1ccccc1Cl | inhibition | 55%
[N-]=[N+]=NC[C@]1(O)CO[C@H](CNC(=O)c2ccccc2Cl)[C@H]1O | inhibition | 88%
O=C(CCc1ccccc1)NC[C@]1(O)CO[C@H](CNC(=O)c2ccccc2Cl)[C@H]1O | inhibition | 18%
O=C(NC[C@H]1OC[C@@](O)(CN2Cc3ccccc3C2=O)[C@@H]1O)c1ccccc1Cl | inhibition | 73%
CC(=O)NC[C@]1(O)CO[C@H](CNC(=O)c2ccccc2Cl)[C@H]1O | inhibition | 82%
O=C(NC[C@]1(O)CO[C@H](CNC(=O)c2ccccc2Cl)[C@H]1O)c1ccccc1F | inhibition | 56%
O=C(NC[C@H]1OC[C@@](O)(CNCc2ccccc2)[C@@H]1O)c1ccccc1Cl | inhibition | 89%
O=C(NC[C@]1(O)CO[C@H](CNC(=O)c2ccccc2Cl)[C@H]1O)c1cncnc1 | inhibition | 35%
O=C(NC[C@]1(O)CO[C@H](CNC(=O)c2ccccc2Cl)[C@H]1O)c1ccccc1 | inhibition | 80%

* * *

tested on: Signal transduction protein TRAP (Staphylococcus aureus (strain Mu50 / ATCC 700699))
assay name: Inhibition of methicillin-resistant Staphylococcus aureus Mu50 TRAP assessed as potentiation of vancomycin-induced antibiofilm activity by measuring vancomycin-mediated reduction in colony forming units at 25 uM cotreated with vancomycin for 24 hrs (reference value: 30 +/- 14%)
measurement context: Staphylococcus aureus subsp. aureus Mu50

smiles string | inhibition / %
CN[C@H](CC(C)C)C(=O)N[C@H]1C(=O)N[C@@H](CC(N)=O)C(=O)N[C@H]2C(=O)N[C@H]3C(=O)N[C@H](C(=O)N[C@H](C(=O)O)c4cc(O)cc(O)c4-c4cc3ccc4O)[C@H](O)c3ccc(c(Cl)c3)Oc3cc2cc(c3O[C@@H]2O[C@H](CO)[C@@H](O)[C@H](O)[C@H]2O[C@H]2C[C@](C)(N)[C@H](O)[C@H](C)O2)Oc2ccc(cc2Cl)[C@H]1O | 30
O=C(NC[C@H]1OC[C@@](O)(CNS(=O)(=O)c2ccccc2)[C@@H]1O)c1ccccc1Cl | 44
COc1ccc(C(=O)NC[C@]2(O)CO[C@H](CNC(=O)c3ccccc3Cl)[C@H]2O)cc1 | 43
O=C(NC[C@]1(O)CO[C@H](CNC(=O)c2ccccc2Cl)[C@H]1O)Nc1ccccc1 | 58
Cc1ccc(C(=O)NC[C@]2(O)CO[C@H](CNC(=O)c3ccccc3Cl)[C@H]2O)cc1 | 58
O=C(NC[C@]1(O)CO[C@H](CNC(=O)c2ccccc2Cl)[C@H]1O)c1ccoc1 | 50
